# Test system: HSP17.6C-C1 of Arabidopsis thaliana
# Assay summary: HSP expression test (HSP17.6C-C1 upstream region linked to GUS, 4-MU production)
# Format: in vivo
# Parameters: key: 4-MU per plant divided by 4-MU of 50 μM geldanamycin positive control
# Measurement setup: 100 μM; soaked 6 hours at 22° C.; positive control 50 μM geldanamycin
Measured parameter: Ratio of 4-MU amount vs. positive control
Give the figure by itself; no unit, no explanation.

- Compound: "O=C1C=C(O)C(=O)c2ccccc21 [Example 2, 2-Hydroxy-1,4-naphthoquinone]"
  Assay result: 0.47
- Compound: "O=C1C(Cl)=C(Cl)C(=O)c2cc([N+](=O)[O-])ccc21 [Example 9, 2,3-Dichloro-6-nitro-1,4-naphthoquinone]"
  Assay result: 0.66
- Compound: "CC(=O)O[C@H](CC=C(C)C)C1=CC(=O)c2c(O)ccc(O)c2C1=O [Example 14, Acetylshikonin]"
  Assay result: 1.00
- Compound: "O=C1C(Cl)=C(Cl)C(=O)c2c1cccc2[N+](=O)[O-] [Example 8, 2,3-Dichloro-5-nitro-1,4-naphthoquinone]"
  Assay result: 0.38
- Compound: "CC(C)=CCC(OC(=O)C=C(C)C)C1=CC(=O)c2c(O)ccc(O)c2C1=O (stereo not drawn) [Example 19, β,β-Dimethylacrylshikonin]"
  Assay result: 1.35

Field request: Ratio of 4-MU amount vs. positive control | item: COC1=CC(=O)c2ccccc2C1=O [Example 11, 2-Methoxy-1,4-naphthoquinone] 0.21

Form field: reported Ratio of 4-MU amount vs. positive control of CC(C)=CC[C@@H](OC(=O)CC(C)(C)O)C1=CC(=O)c2c(O)ccc(O)c2C1=O [Example 17, β-Hydroxyisovalerylshikonin] 0.80

Suppose we examine the compound O=C1C(Cl)=C(Cl)C(=O)c2c(O)ccc(O)c21 [Example 7] ; what Ratio of 4-MU amount vs. positive control value has been reported? 1.72

Need Ratio of 4-MU amount vs. positive control of O=C1C=CC(=O)c2c(O)ccc(O)c21 [Example 5, 5,8-Dihydroxy-1,4-naphthoquinone] , thanks. 1.96

Fill in: Ratio of 4-MU amount vs. positive control of O=C1C=CC(=O)c2ccccc21 [Example 1, 1,4-Naphthoquinone] is ___ 0.27

###

# Test system: HSP17.6C-C1 of Arabidopsis thaliana
# Assay summary: HSP expression test (HSP17.6C-C1 upstream region linked to GUS, 4-MU production)
# Format: in vivo
# Set-up: key: 4-MU per plant divided by 4-MU of 50 μM geldanamycin positive control
# Measurement setup: 100 μM; soaked 6 hours at 22° C.; positive control 50 μM geldanamycin
# Experimental: First, a construct linked to β-glucuronidase (GUS) gene was introduced to 1 kb upstream of HSP17.6C-C1 of Arabidopsis thaliana (the family Brassicaceae) to prepare a mutant. […] Next, two individuals of 7-day-old Arabidopsis thaliana mutants grown in a ⅕ MS medium were soaked in 300 μL of the test solution of each example or the positive control at 22° C. for 6 hours. […] The calculated value of 4-MU was divided by the value of 4-MU of the positive control to calculate a ratio vs. positive control. […]
Measured parameter: Ratio of 4-MU amount vs. positive control
# print the numeric value only

Examples from the recorded data:
- Compound: "CC1=CC(=O)c2ccccc2C1=O [Example 10, 2-Methyl-1,4-naphthoquinone]"
  Assay result: 0.09
- Compound: "CC1=CC(=O)c2c(O)cccc2C1=O [Example 4, 5-Hydroxy-2-methyl-1,4-naphthoquinone]"
  Assay result: 0.18

We now examine a further compound.
Need Ratio of 4-MU amount vs. positive control, item CC(C)=CC[C@@H](O)C1=CC(=O)c2c(O)ccc(O)c2C1=O [Example 13, Shikonin] 1.52

Numbers sourced from patent US11638425B2.
